Where do these numbers come from? They come from patent EP4725969A1.

molecular target: T1, recombinant human HER2 extracellular domain protein (human, UniProt P04626 23-652); assay: BLI, Protein A capture
T1 construct: range 23-652; Range is printed for the immunogen/panning protein; also called ErbB2; recombinant HER2 protein
measured.attribute: kon (M⁻¹ s⁻¹)
Kindly provide the numeric value in M⁻¹ s⁻¹ only, without the unit symbol.

INSERT INTO measurements (binder, measured_value) VALUES
  ('Hu2117HK-Mu44 (Fc fusion, name in Kabat numbering, scFv-hIgG1 Fc; not shown: human IgG1 Fc) scFv: EVQLVESGGGLVQPGGSLRLSCAASGFTYSSYGMSWVRQAPGKGLEWVASISGGGSYTKYPDSVKGRFTISRDNSKNTLYLQMNSLRAEDTAVYYCARDYEGFFDVWGQGTLVTVSSGGGGSGGGGSGGGGSDIQMTQSPSSLSASVGDRVTITCRSSQSLVHSNGNTYLHWYQQKPGKAPKLLIYKVSNRFSGVPSRFSGSGSGTDFTLTISSLQPEDFATYFCSQSTHVPYTFGQGTKVEIK', 80000);

# input Give its kon value. Item: Hu2117HK-Mu46 (Fc fusion, scFv-hIgG1 Fc; not shown: human IgG1 Fc) scFv: EVQLVESGGGLVQPGGSLRLSCAASGFTYSSYGMSWVRQAPGKGLEWVASISGGGSYTKYPDSVKGRFTISRDNSKNTLYLQMNSLRAEDTAVYYCARDYNGFFDVWGQGTLVTVSSGGGGSGGGGSGGGGSDIQMTQSPSSLSASVGDRVTITCRSSQSLVHSNGNTYLHWYQQKPGKAPKLLIYKVSNRFSGVPSRFSGSGSGTDFTLTISSLQPEDFATYFCSQSTHVPYTFGQGTKVEIK
# output 77400

# input What about Hu2117HK-Mu04 (Fc fusion, scFv-hIgG1 Fc; not shown: human IgG1 Fc) scFv: EVQLVESGGGLVQPGGSLRLSCAASGFTYSSYGMSWVRQAPGKGLEWVASISGGGSYTKYPDSVKGRFTISRDNSKNTLYLQMNSLRAEDTAVYYCARDYAGFFDVWGQGTLVTVSSGGGGSGGGGSGGGGSDIQLTQSPSSLSASVGDRVTITCRSSQSLVHSNGNTYLHWYQQKPGKAPKLLIYKVSNRFSGVPSRFSGSGSGTDFTLTISSLQPEDFATYFCSQSTHVPYTFGQGTKVEIK ?
# output 90600

# input What about Hu2117HK-Mu41 (Fc fusion, scFv-hIgG1 Fc; not shown: human IgG1 Fc) scFv: EVQLVESGGGLVQPGGSLRLSCAASGFTYSSYGMSWVRQAPGKGLEWVASISGGGNYAKYPDSVKGRFTISRDNSKNTLYLQMNSLRAEDTAVYYCARDYAGFFDVWGQGTLVTVSSGGGGSGGGGSGGGGSDIQMTQSPSSLSASVGDRVTITCRSSQSLVHSNGNTYLHWYQQKPGKAPKLLIYKVSNRFSGVPSRFSGSGSGTDFTLTISSLQPEDFATYFCSQSTHVPYTFGQGTKVEIK ?
# output 62400

# input What about Hu2117HK-Mu10 (Fc fusion, scFv-hIgG1 Fc; not shown: human IgG1 Fc) scFv: EVQLVESGGGLVQPGGSLRLSCAASGFTYSSYGMSWVRQAPGKGLEWVASISGGGSYTKYVDSVKGRFTISRDNSKNTLYLQMNSLRAEDTAVYYCARDYAGFFDVWGQGTLVTVSSGGGGSGGGGSGGGGSDIQMTQSPSSLSASVGDRVTITCRSSQSLVHSNGNTYLHWYQQKPGKAPKLLIYKVSNRFSGVPSRFSGSGSGTDFTLTISSLQPEDFATYFCSQSTHVPYTFGQGTKVEIK ?
# output 77400
